B1: SNAP91 (parent)
chain: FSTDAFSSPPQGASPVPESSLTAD

# Variants of: B1
# method.notes: protein stability index of a GFP-peptide fusion (GPS, HEK-293T) (PSI 1-6); higher = more stable;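 further: lentivirally expressed fusions sorted by FACS into six bins by GFP to DsRed ratio, PSI derived from sequencing read proportions per bin multiplied by bin number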
# assay.conditions: c terminus: a fixed tail appended
assay.endpoint: protein stability index

mutation_notation=D24C assay_endpoint="protein stability index" experimental_result=2.83
mutation_notation=P15S assay_endpoint="protein stability index" experimental_result=3.03
mutation_notation=F1Q assay_endpoint="protein stability index" experimental_result=5.64
mutation_notation=D4A assay_endpoint="protein stability index" experimental_result=3.25
mutation_notation=F6C assay_endpoint="protein stability index" experimental_result=5.09
mutation_notation=P17C assay_endpoint="protein stability index" experimental_result=3.01
mutation_notation=Q11W assay_endpoint="protein stability index" experimental_result=2.2
mutation_notation=A13S assay_endpoint="protein stability index" experimental_result=3.54
mutation_notation=L21C assay_endpoint="protein stability index" experimental_result=3.38
mutation_notation=S2P assay_endpoint="protein stability index" experimental_result=3
mutation_notation=S19L assay_endpoint="protein stability index" experimental_result=2.79
mutation_notation=L21E assay_endpoint="protein stability index" experimental_result=4.1
mutation_notation=A23R assay_endpoint="protein stability index" experimental_result=2.96
mutation_notation=S7P assay_endpoint="protein stability index" experimental_result=3.56
mutation_notation=G12K assay_endpoint="protein stability index" experimental_result=2.73
mutation_notation=A5P assay_endpoint="protein stability index" experimental_result=4.94
mutation_notation=S8C assay_endpoint="protein stability index" experimental_result=2.75
mutation_notation=S8R assay_endpoint="protein stability index" experimental_result=2.87
mutation_notation=D4C assay_endpoint="protein stability index" experimental_result=2.76
mutation_notation=A23Q assay_endpoint="protein stability index" experimental_result=3.91
mutation_notation=T3F assay_endpoint="protein stability index" experimental_result=4.6
mutation_notation=S8L assay_endpoint="protein stability index" experimental_result=3.29
mutation_notation=S8G assay_endpoint="protein stability index" experimental_result=3.67
mutation_notation=A23K assay_endpoint="protein stability index" experimental_result=3.49
mutation_notation=S2D assay_endpoint="protein stability index" experimental_result=5.7
mutation_notation=S7H assay_endpoint="protein stability index" experimental_result=2.51
mutation_notation=S7N assay_endpoint="protein stability index" experimental_result=4.22
mutation_notation=P9A assay_endpoint="protein stability index" experimental_result=2.52
mutation_notation=A23N assay_endpoint="protein stability index" experimental_result=3.5
mutation_notation=D24A assay_endpoint="protein stability index" experimental_result=3.03
mutation_notation=S7D assay_endpoint="protein stability index" experimental_result=5.47
